- Measurement Target: HLA-A*11:01
- Assay Comment: IEDB peptide-MHC binding, purified MHC/direct/fluorescence; filed as Kd, often an IC50 or EC50 that approximates it; bounds were set here for any values at or beyond the usual limits of such assays
- Measurement Context: source organism: Escherichia coli O157:H7
pKd: −log10 of the molar value.
Measurement Name: pKd

Examples with their reported pKd follow.
[[record]]
sequence_chain = "KTTIKFHPW"
assay_value = "≤ 4.70"

[[record]]
sequence_chain = "LQLTAVFAY"
assay_value = 5.70


Proceed to the following item.
Ask: Entry LDKGKLWHL : reported pKd = ?
Reply: ≤ 4.70

Origin of the recorded values: the Immune Epitope Database (IEDB)
